target system: cynomolgus IL-36R (on cells, allelic variant not stated) (cynomolgus monkey), A0A2K5
Sequence (chain, as listed by the source mutant): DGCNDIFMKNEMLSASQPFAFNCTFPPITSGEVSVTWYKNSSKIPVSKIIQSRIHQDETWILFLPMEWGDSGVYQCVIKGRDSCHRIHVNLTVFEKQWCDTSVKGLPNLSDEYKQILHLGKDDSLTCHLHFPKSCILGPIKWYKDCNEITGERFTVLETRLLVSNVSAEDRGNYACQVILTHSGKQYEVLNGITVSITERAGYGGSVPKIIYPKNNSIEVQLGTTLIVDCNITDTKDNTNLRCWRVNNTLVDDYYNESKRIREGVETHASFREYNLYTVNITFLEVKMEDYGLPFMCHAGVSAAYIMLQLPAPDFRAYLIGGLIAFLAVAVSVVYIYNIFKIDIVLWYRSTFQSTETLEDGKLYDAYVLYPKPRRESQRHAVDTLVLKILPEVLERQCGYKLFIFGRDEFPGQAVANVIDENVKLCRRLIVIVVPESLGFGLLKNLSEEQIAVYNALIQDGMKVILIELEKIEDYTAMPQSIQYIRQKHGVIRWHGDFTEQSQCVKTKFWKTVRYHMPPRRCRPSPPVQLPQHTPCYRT
experiment notes: cell-based or functional assay
assay endpoint: EC50 (nM), IL-8 secretion by primary cynomolgus keratinocytes, 50 ng/ml cyno IL-36α
Numbers only; they are read as nM.

# example entries with known answers
[
  {
    "binder": "Hzd 5D3 (APE6060) (antibody, V domains shown, also called 5D3 Humanized) VH: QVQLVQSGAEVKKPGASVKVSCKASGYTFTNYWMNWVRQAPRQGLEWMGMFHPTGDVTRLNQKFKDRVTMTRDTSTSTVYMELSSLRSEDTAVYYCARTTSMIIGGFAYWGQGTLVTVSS VL: DIVMTQTPLSLSVTPGQPASISCRSSKSLLHRNAITYFYWYLQKPGQPPQLLIYQMSNLASGVPDRFSGSGSGTDFTLKISRVEAEDVGVYYCAQNLELPLTFGGGTKVEIK",
    "unit label": "nM",
    "result number": 1.4
  },
  {
    "binder": "Hzd 18D4 (APE7247) (antibody, V domains shown) VH: DVQFQESGPGLVKPSQTLSLTCTVTGYSITADFAWNWIRQPPGKGLEWIGYISYSGDTNYNPSLKSRVTITRDTSKNQFSLKLSSVTAADTAVYFCAIRGPYSFTYWGQGTLVTVSSA VL: DIQMTQSPSSLSASVGDRVTITCRASQWINNYLNWYQQKPGKAPKLLIYYTSMLHSGVPSRFSPSGSGNDYTFTISSLQPEDIATYYCQQGHTLPWTFGGGTKVEIKRT",
    "unit label": "nM",
    "result number": 2.3
  }
]

// query Any idea what EC50 (nM), IL-8 secretion by primary cynomolgus keratinocytes, 50 ng/ml cyno IL-36α was measured for Hzd 5D3 (APE6155) (antibody, V domains shown, also called APE6917; APE06155) VH: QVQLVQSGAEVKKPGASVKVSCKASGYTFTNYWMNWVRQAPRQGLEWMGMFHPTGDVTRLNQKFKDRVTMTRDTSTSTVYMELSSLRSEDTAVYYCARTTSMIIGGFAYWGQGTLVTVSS VL: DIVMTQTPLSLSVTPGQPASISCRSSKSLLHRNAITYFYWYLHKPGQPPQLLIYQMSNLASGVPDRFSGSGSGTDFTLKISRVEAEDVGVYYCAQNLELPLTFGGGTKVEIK ?
// result 1.1
